- TARGET: FPR1 (Homo sapiens, UniProt P21462)
- Sequence (P21462 whole entry, species assumed): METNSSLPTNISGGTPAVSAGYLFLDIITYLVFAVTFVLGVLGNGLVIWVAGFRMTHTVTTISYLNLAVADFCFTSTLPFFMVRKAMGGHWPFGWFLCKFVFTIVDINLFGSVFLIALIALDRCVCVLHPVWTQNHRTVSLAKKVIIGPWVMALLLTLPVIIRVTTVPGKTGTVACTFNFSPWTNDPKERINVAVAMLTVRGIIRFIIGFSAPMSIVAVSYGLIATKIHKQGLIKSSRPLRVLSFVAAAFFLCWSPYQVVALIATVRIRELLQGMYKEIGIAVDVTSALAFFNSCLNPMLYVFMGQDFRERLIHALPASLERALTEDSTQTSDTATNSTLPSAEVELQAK
- PROTOCOL NOTES: Change in calcium activity by peptide, FPR1 activation effect
- COND: calcium activity (Fura-2), graded per Table 3, read-out: EC50 for [Ca^2+] FPR1
pEC50: −log10 of the molar value. Peptide text beside a SMILES is read from it.
Form field: pEC50 (one value per entry).

CSCC[C@H](NC(=O)[C@H](CCCNC(=N)N)NC(C)=O)C(=O)N[C@@H](CCCNC(=N)N)C(=O)N[C@@H](Cc1ccc(O)cc1)C(=O)N[C@@H](Cc1c[nH]c2ccccc12)C(=O)N1CCC[C@H]1C(=O)N[C@H](CCSC)C(N)=O [Peptide 107] (HELM PEPTIDE1{[ac].R.M.R.Y.W.P.[dM].[am]}$$$$V2.0) :: 6.00 to 7.00
CCCC(=O)N[C@H](C(=O)N[C@@H](CCCCN)C(=O)N[C@@H](Cc1ccc(O)cc1)C(=O)N[C@@H](CCCCN)C(=O)N[C@H](C(=O)N[C@H](CCSC)C(N)=O)C(C)C)[C@@H](C)CC [Peptide 136] (HELM PEPTIDE1{[CCCC(=O)[*:2]].I.K.Y.K.V.[dM].[am]}$$$$V2.0) :: < 5.00

Let us examine a further case.
The recorded pEC50 for CCCCCCCC(=O)N[C@@H](Cc1c[nH]cn1)C(=O)N[C@@H](CCCCN)C(=O)N[C@@H](Cc1ccc(O)cc1)C(=O)N[C@@H](CCCCN)C(=O)N1CCC[C@H]1C(=O)N[C@H](CCSC)C(N)=O [Peptide 149] (HELM PEPTIDE1{[CCCCCCCC(=O)[*:2]].H.K.Y.K.P.[dM].[am]}$$$$V2.0) is < 5.00
